In this section, each of the compounds is paired with its reported GI50.
System: OVCAR-4
procedureDetails: NCI tumour cell line growth inhibition, 48 h
Active and inactive are the calls of the source. No stated cut-off is given here; in the data, active = GI50 up to about 1.1 µM and inactive = higher.
measuredEndpoint: GI50

[
  {
    "compound": "COC1=CC(C2c3cc4c(cc3[C@@H](Nc3ccc(F)cc3)C3COC(=O)[C@H]23)OCO4)=CC(=O)C1=O (stereo not given in full)",
    "result": "39.8 µM (inactive)"
  },
  {
    "compound": "CCOC(=O)C(Cc1c2ccccc2cc2ccccc12)(NC(C)=O)C(=O)OCC",
    "result": "40.4 µM (inactive)"
  },
  {
    "compound": "Cc1nn2c(=O)c([N+](=O)[O-])c(/C=C/c3ccc(F)cc3)nc2s1",
    "result": "11 µM (inactive)"
  },
  {
    "compound": "C=Cc1c(-c2ccccc2)cnc2[nH]c3ccccc3c12",
    "result": "> 50 µM (inactive)"
  },
  {
    "compound": "CCOC(=O)C(C)c1nc2cc3cccnc3c(Cl)c2[nH]c1=O (stereo not given)",
    "result": "> 100 µM (inactive)"
  },
  {
    "compound": "CC(C)OC1=C(CC2(C)OCCO2)C(=O)C12OCCO2",
    "result": "> 100 µM (inactive)"
  },
  {
    "compound": "CC(C)(C)OC(=O)NCCCCC(N)C(N)=O (stereo not given)",
    "result": "> 100 µM (inactive)"
  },
  {
    "compound": "CCOC(=O)[C@H]1Nc2ccc(O)cc2C2c3ccccc3CC21 (stereo not given in full)",
    "result": "42.1 µM (inactive)"
  },
  {
    "compound": "C[C@@H]1OC(=O)N2CCCC(=C3SCCCS3)C12 (stereo not given in full)",
    "result": "> 100 µM (inactive)"
  },
  {
    "compound": "Cc1cccc2c1CC(C1OC(=O)c3c(C)cccc31)C2=O (stereo not given)",
    "result": "> 100 µM (inactive)"
  },
  {
    "compound": "NC(Cc1n[nH]c2ccccc12)C(=O)O (stereo not given)",
    "result": "> 100 µM (inactive)"
  },
  {
    "compound": "O=C(O)[C@@H]1CCC(=O)N1C(c1ccc2c(c1)OCO2)c1ccc2c(c1)OCO2",
    "result": "35.2 µM (inactive)"
  },
  {
    "compound": "CC(=O)O[C@H]1CCc2c(cc(N)c3c2C(=O)C[C@]2(C)C([C@H](C)CCCC(C)C)CCC32C)C1(C)C (stereo not given in full)",
    "result": "92.7 µM (inactive)"
  },
  {
    "compound": "COC(=O)/C=C\\C(C#N)(C#N)/N=C/c1ccsc1",
    "result": "18.5 µM (inactive)"
  },
  {
    "compound": "CN(C)Cc1c(O)ccc2c1c1c(n2C)C(=O)c2ccccc2C1=O",
    "result": "4.28 µM (inactive)"
  },
  {
    "compound": "CCc1cccc(CC)c1NC(=O)C1=C(C)NC(C)=C(C(=O)Nc2c(CC)cccc2CC)C1c1ccc2c(c1)OCO2",
    "result": "16.6 µM (inactive)"
  },
  {
    "compound": "CC(=O)N1CN2C(=O)CCC2c2ccccc21 (stereo not given)",
    "result": "> 100 µM (inactive)"
  },
  {
    "compound": "CCCCCCCCCCCCNC(=O)NCC(OCC)OCC",
    "result": "> 10 µM (inactive)"
  },
  {
    "compound": "O=C1OC(c2ccc(O)c(Cl)c2)(c2ccc(O)c(Cl)c2)c2ccc(Br)c3cccc1c23.O=C1OC(c2ccc(O)c(Cl)c2)(c2ccc(O)c(Cl)c2)c2cccc3c(Br)ccc1c23",
    "result": "2.67 µM (inactive)"
  },
  {
    "compound": "C=C(C)[C@@H]1C[C@H]2O[C@](O)(C(=C)CC(=O)/C=C(/C)C[C@@H]3OC(=O)[C@]24O[C@@H]34)[C@H]1O",
    "result": "> 100 µM (inactive)"
  },
  {
    "compound": "Cc1nc(/C(=N\\n2cnnc2)Nc2ccc(Br)cc2)no1",
    "result": "> 100 µM (inactive)"
  },
  {
    "compound": "COc1cccc2c(=O)oc(-c3ccc(C(C)(C)C)cc3)nc12",
    "result": "53.6 µM (inactive)"
  },
  {
    "compound": "COc1ccccc1NC(=O)C(=O)C(C(=O)c1ccccc1F)C1OC(=O)c2ccccc21 (stereo not given)",
    "result": "28.1 µM (inactive)"
  },
  {
    "compound": "C#CC1(O)C(COP(=O)(O)OCC2OC(n3ccc(NCCCCCCCCCCCCCCCCCC)nc3=O)C(O)C2O)OC(n2ccc(N)nc2=O)C1O (stereo not given)",
    "result": "1.82 µM (inactive)"
  },
  {
    "compound": "CN1C(=O)c2c(ccc3c2OCO3)C2C(O)Cc3cc4c(cc3C21)OCO4 (stereo not given)",
    "result": "> 100 µM (inactive)"
  },
  {
    "compound": "COc1nc2c(c(=O)[nH]1)N=C(c1ccc([N+](=O)[O-])cc1)CC(c1ccccc1)N2 (stereo not given)",
    "result": "62.8 µM (inactive)"
  },
  {
    "compound": "COc1ccc(C2OC(c3ccncc3)=NN2C)cc1OC (stereo not given)",
    "result": "> 100 µM (inactive)"
  },
  {
    "compound": "c1ccc(C2=NNC3c4ccccc4-c4ccccc4N3C2)cc1 (stereo not given)",
    "result": "37.9 µM (inactive)"
  },
  {
    "compound": "Cc1ccc(NC(=O)c2cc(S(=O)(=O)Nc3n[nH]c(=O)n3-c3ccccc3)c(S)cc2Cl)cc1",
    "result": "> 100 µM (inactive)"
  },
  {
    "compound": "COc1nc2c(c(O)c(C)c(=O)n2OC2OCC(OC(C)=O)C(OC(C)=O)C2OC(C)=O)c(=O)n1C (stereo not given)",
    "result": "> 100 µM (inactive)"
  },
  {
    "compound": "CC(C)/C(Cl)=N\\OC(=O)Nc1cccc(F)c1",
    "result": "11.7 µM (inactive)"
  },
  {
    "compound": "COc1ccc2c(c1)Cc1cc(/N=[N+](\\[O-])c3ccc4c(c3)Cc3cc(OC)ccc3-4)ccc1-2",
    "result": "40 µM (inactive)"
  },
  {
    "compound": "O=C(O)c1cc(Cl)cc(Cc2cc(Cl)cc(C(=O)O)c2O)c1O",
    "result": "> 100 µM (inactive)"
  },
  {
    "compound": "Cc1cc2c(c(C(=O)NCCC(=O)N[C@@H](C)C(=O)OCc3ccccc3)c1)Oc1c(cc(C)cc1C(=O)NCCC(=O)N[C@@H](C)C(=O)OCc1ccccc1)S2",
    "result": "> 100 µM (inactive)"
  },
  {
    "compound": "CCOC(=O)C(C)c1nc2cc(F)c(F)cc2[nH]c1=O (stereo not given)",
    "result": "> 100 µM (inactive)"
  },
  {
    "compound": "COc1cc(/C=C2\\C(=O)N(c3ccccc3)C(c3ccccc3)S2(=O)=O)cc(OC)c1OC (stereo not given)",
    "result": "27.5 µM (inactive)"
  },
  {
    "compound": "CCOC(=O)/C(C#N)=C\\C=C1/C=CN=C2NCCN21",
    "result": "> 100 µM (inactive)"
  },
  {
    "compound": "CCc1n[nH]c(=O)n1CC",
    "result": "> 100 µM (inactive)"
  },
  {
    "compound": "N#CC(C#N)=C1SCC(=O)CS1",
    "result": "> 100 µM (inactive)"
  },
  {
    "compound": "CCOP(=O)(Cc1ccc(CP(=O)(OCC)OCC)n1C)OCC",
    "result": "> 100 µM (inactive)"
  }
]
